procedureDetails: Plasma oxytocin pharmacokinetics, phase 1 single-dose study
Format: in vivo, human
testSettings: female, human, plasma, im, 10 IU
measurementLabel: tmax (min)

- givenSmiles: "CC[C@H](C)[C@@H]1NC(=O)[C@H](Cc2ccc(O)cc2)NC(=O)[C@@H](N)CSSC[C@@H](C(=O)N2CCC[C@H]2C(=O)N[C@@H](CC(C)C)C(=O)NCC(N)=O)NC(=O)[C@H](CC(N)=O)NC(=O)[C@H](CCC(N)=O)NC1=O"
  unitLabel: "min"
  valueObserved: 10.2

---

procedureDetails: Plasma oxytocin pharmacokinetics, phase 1 single-dose study
Format: in vivo, human
testSettings: female, human, plasma, im, 10 IU

- molecule: "CC[C@H](C)[C@@H]1NC(=O)[C@H](Cc2ccc(O)cc2)NC(=O)[C@@H](N)CSSC[C@@H](C(=O)N2CCC[C@H]2C(=O)N[C@@H](CC(C)C)C(=O)NCC(N)=O)NC(=O)[C@H](CC(N)=O)NC(=O)[C@H](CCC(N)=O)NC1=O [IM oxytocin, oxytocin]"
  unitLabel: "ng/mL"
  Cmax: 0.19
